Target: Protein translocase subunit SecA (Escherichia coli (strain K12)) (UniProt P10408)
Sequence (P10408 whole entry): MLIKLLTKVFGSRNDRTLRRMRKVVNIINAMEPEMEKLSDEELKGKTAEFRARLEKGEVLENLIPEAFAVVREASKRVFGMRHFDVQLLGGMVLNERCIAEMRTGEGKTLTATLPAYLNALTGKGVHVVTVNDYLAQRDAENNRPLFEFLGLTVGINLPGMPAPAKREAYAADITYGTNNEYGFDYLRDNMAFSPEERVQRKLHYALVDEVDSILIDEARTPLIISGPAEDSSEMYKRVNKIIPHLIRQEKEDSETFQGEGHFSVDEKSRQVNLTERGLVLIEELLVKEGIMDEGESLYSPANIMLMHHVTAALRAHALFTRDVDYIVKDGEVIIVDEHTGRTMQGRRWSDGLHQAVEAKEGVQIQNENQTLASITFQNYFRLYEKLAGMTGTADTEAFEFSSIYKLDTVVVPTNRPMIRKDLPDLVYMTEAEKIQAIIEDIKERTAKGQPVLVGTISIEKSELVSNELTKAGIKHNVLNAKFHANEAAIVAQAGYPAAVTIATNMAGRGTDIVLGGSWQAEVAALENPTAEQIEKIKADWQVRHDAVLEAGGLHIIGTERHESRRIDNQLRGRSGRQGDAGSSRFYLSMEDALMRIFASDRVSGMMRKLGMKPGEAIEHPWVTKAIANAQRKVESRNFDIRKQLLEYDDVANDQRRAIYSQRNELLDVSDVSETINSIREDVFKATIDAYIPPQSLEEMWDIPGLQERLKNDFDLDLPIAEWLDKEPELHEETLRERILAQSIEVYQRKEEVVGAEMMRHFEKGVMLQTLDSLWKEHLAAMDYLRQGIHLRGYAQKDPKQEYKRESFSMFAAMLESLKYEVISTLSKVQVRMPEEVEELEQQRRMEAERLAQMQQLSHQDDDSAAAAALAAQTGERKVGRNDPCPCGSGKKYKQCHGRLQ
Assay: Assay to Identify E. coli SecA ATPase Inhibitors
Assay type: functional
Set-up: scale not given: direction of the effect not stated beside the values
Conditions: 30 µM
Measured potencies and affinities stand elsewhere.
Observed property: Percent Effect (%)
Number only, in %; omit the unit.

Past entries and their recorded results:
compound=CC(C)NC(=O)[C@@H]1CCO[C@@H]2CCN(c3ncccn3)C[C@H]21 observed_result=-6.07
compound=O=C(O)C1(Cc2cc(-c3ccc(F)cc3F)no2)CCOCC1 observed_result=-4.49
compound="Cc1ccc(CN2CCC3(C2)C(=O)N(CC(C)C)c2ccccc23)s1 (stereo not drawn)" observed_result=-1.13
compound="CC(C)c1noc(C(C)N2CCN(Cc3ccccc3C#N)CC2)n1 (stereo not drawn)" observed_result=-0.614
compound=CN(Cc1cn2c(n1)CN(c1ncc(F)cn1)CC2)Cc1ccco1 observed_result=-3.08
compound="CCN1CC(C(=O)N2CCC(Oc3ccccc3Cl)CC2)CC1=O (stereo not drawn)" observed_result=-1.39
compound="OC(CN1CCOCC1)c1ccc(OC(F)(F)F)cc1 (stereo not drawn)" observed_result=-5.02
compound="Cc1cnn(CC2CCCCN2C(=O)c2ccc3[nH]nnc3c2)c1 (stereo not drawn)" observed_result=-3.72

Entry Cc1ccc2c(ccn2CCC(=O)NC[C@@H]2CCCN3CCCC[C@H]23)c1 , Percent Effect reported as -5.55

Entry Cc1nn(C)c2c(N3CCN(C(=O)c4ccccc4)CC3)ncnc12 , Percent Effect reported as 1.93

Entry Cc1nc(C)n(CC2CCCCN2CC(=O)Nc2nncs2)n1 (stereo not drawn) , Percent Effect reported as -8.22

Entry Cc1cncc(C(=O)N2CCC(Cn3cc(-c4ccsc4)nn3)CC2)c1 , Percent Effect reported as -2.48

Entry Cc1cc(C)n(C2CCCN(C(=O)C3=NN(C)C(=O)CC3)C2)n1 (stereo not drawn) , Percent Effect reported as -0.53

Entry Cc1ccsc1C(=O)N1CC(C(=O)NCC2CC2)C2(CCOCC2)C1 (stereo not drawn) , Percent Effect reported as -6.49

Entry CCn1cc(NC(=O)C2CCN(Cc3ccccc3C#N)CC2)cn1 , Percent Effect reported as -3.86

Entry CCCS(=O)(=O)N1CCC(NC(=O)c2ccc(Cl)s2)CC1 , Percent Effect reported as -0.0871

Entry CN(CCCc1cnn(C)c1)C(=O)C1COc2ccccc2C1 (stereo not drawn) , Percent Effect reported as 0.742

Entry Cc1ccc(S(=O)(=O)Nc2ccc(-n3cccc3C(=O)O)c(C)c2)s1 , Percent Effect reported as -4.28

Entry CNc1cc(C)nc(C2CN(Cc3cc[nH]n3)CCO2)c1 (stereo not drawn) , Percent Effect reported as -2.72
